The origin of these recorded values is patent US9557338B2.

# System: Phospho-4E-BP1(T46)
# Method Notes: Luminex multiplex assay, Phospho-4E-BP1(T46)
# Format: cell-based
# Measurement Setup: MDA-MB-231; IGF-I stimulation; read-out: p-4E-BP1(T46)
Measured Attribute: IC50 (nM)
Quick note: give the figure in nM, leave out the unit.

Entry CO[C@H]1CC[C@H](N2C(=O)CNc3ncc(-c4ccc(C(C)(C)O)nc4)nc32)CC1 needs its IC50 filled in; supply it.
120

----------
# Test system: Phospho-PRAS40(T246)
# Method Notes: Luminex multiplex assay, Phospho-PRAS40(T246)
# Type: cell-based
# Measurement Setup: PC3 cell line; read-out: Luminex PRAS40
Mark met only when IC50 stays strictly below 200 nM. Values equal to the cut-off are not met.

Here's an entry: CCn1c(=O)[nH]c2ncc(-c3ccc(-c4ncn[nH]4)c(F)c3C)nc21 . Is its IC50 below 200 nM?
not met

Here's an entry: CCN1CC(=O)Nc2ncc(-c3ccc(-c4nnc[nH]4)nc3C)nc21 . Is its IC50 below 200 nM?
not met

Here's an entry: CO[C@H]1CC[C@H](N2C(=O)CNc3ncc(-c4ccc(C(C)(C)O)nc4)nc32)C1 . Is its IC50 below 200 nM?
not met

Here's an entry: CO[C@@H]1CC[C@@H](CN2CC(=O)Nc3ncc(-c4ccc(C(C)(C)O)nc4)nc32)C1 . Is its IC50 below 200 nM?
not met

Here's an entry: CO[C@H]1CC[C@H](N2CC(=O)Nc3ncc(-c4ccc(-c5nnc[nH]5)nc4C)nc32)C1 . Is its IC50 below 200 nM?
not met

Here's an entry: COC1CCC(N2CC(=O)Nc3ncc(-c4ccc(-c5nnc[nH]5)nc4C)nc32)C1 (stereo not drawn) [C-52] . Is its IC50 below 200 nM?
not met

Here's an entry: Nc1ccc(-c2cnc3c(n2)N(CCC2CCOCC2)C(=O)CN3)cn1 . Is its IC50 below 200 nM?
not met

Here's an entry: Cc1cc(-c2nnc[nH]2)ncc1-c1cnc2c(n1)N(CC1CCOCC1)C(C)(C)C(=O)N2 . Is its IC50 below 200 nM?
met

Here's an entry: CC(C)(O)c1ccc(-c2cnc3c(n2)N([C@H]2CC[C@@H](O)CC2)C(=O)CN3)cn1 . Is its IC50 below 200 nM?
not met

Here's an entry: COCCN1C(=O)CNc2ncc(-c3ccc(-c4nnc[nH]4)c(F)c3)nc21 . Is its IC50 below 200 nM?
met

Here's an entry: COC1CCC(N2C(=O)CNc3ncc(-c4ccc(C(C)(C)O)[n+]([O-])c4)nc32)CC1 (stereo not drawn) . Is its IC50 below 200 nM?
not met

Here's an entry: CO[C@@H]1CC[C@@H](N2C(=O)CNc3ncc(-c4ccc(-c5nnc[nH]5)nc4C)nc32)C1 . Is its IC50 below 200 nM?
not met

Here's an entry: NC(=O)c1cccc(-c2cnc3c(n2)N(CCC2CCOCC2)CC(=O)N3)c1 . Is its IC50 below 200 nM?
not met

Here's an entry: O=C1CNc2ncc(-c3ccc4[nH]ccc4c3)nc2N1CCC1CCOCC1 . Is its IC50 below 200 nM?
not met

Here's an entry: O=C1CNc2ncc(-c3ccc4cn[nH]c4c3)nc2N1CCC1CCOCC1 . Is its IC50 below 200 nM?
not met

Here's an entry: COC1CCC(CN2C(=O)CNc3ncc(-c4ccc(-c5nc[nH]n5)nc4C)nc32)CC1 (stereo not drawn) . Is its IC50 below 200 nM?
met

Here's an entry: O=C1CNc2ncc(-c3cn[nH]c3)nc2N1CCC1CCOCC1 . Is its IC50 below 200 nM?
not met

Here's an entry: O=C1CNc2ncc(-c3cnc4nc[nH]c4c3)nc2N1CCC1CCOCC1 . Is its IC50 below 200 nM?
not met
